src = paper PMC9482650

# Assayed System: MAGI1_2, Q96QZ7
# Sequence (Q96QZ7 456-580): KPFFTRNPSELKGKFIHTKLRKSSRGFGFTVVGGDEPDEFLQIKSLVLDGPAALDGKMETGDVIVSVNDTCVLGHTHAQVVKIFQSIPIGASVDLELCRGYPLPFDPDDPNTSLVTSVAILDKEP
# Protocol Description: holdup assay
# Set-up: key: below the threshold = too weak to quantify, mostly under pKd 3.1 to 4
# Condition: plain residues with an end cap or a label only (N-terminal biotin on a linker: ado-ado)

# Binder, pKd
rows = [
    ("RRRESYSTTV [EVI5, O60447]", 4.78),
    ("YNNCLEILRV [DCAF7, P61962]", "below the threshold"),
    ("IKAIVDLTGL [TRAF2, Q12933]", "below the threshold"),
    ("IPLDGETEEL [MYOZ1, Q9NP98]", "below the threshold"),
    ("EVNETDDTKM [KCNJ1, P48048]", "below the threshold"),
    ("VDSTVKVWTC [TRAF7, Q6Q0C0]", "below the threshold"),
    ("TPPAAKKSRI [BAZ1A, Q9NRL2]", "below the threshold"),
    ("FNSYSLTGYV [CLDN2, P57739]", "below the threshold"),
    ("PRAEAEDSFL [PDGFRB, P09619]", "below the threshold"),
    ("PDGQCTVTEV [RNF146, Q9NTX7]", 3.53),
    ("LSEFKAMDSI [CTNNA1, P35221]", "below the threshold"),
    ("EVEEFPETSV [TRPV3, Q8NET8]", 3.63),
    ("QSLNRMEYIV [JAG1, P78504]", "below the threshold"),
    ("PAPSSGKDYV [CLDN1, O95832]", "below the threshold"),
    ("NLSIEKETKL [ASNSD1, Q9NWL6]", "below the threshold"),
    ("VRNLPESEEL [MYOZ3, Q8TDC0]", "below the threshold"),
]
